Tested on: 5838 Ewing sarcoma cells (EWS-ERG)
Test: 72 h GI50 assay in 5838
Conditions: selectivity for 5838 cells
Parameter: Ratio of median GI50 Non-Ewing sarcoma cell lines (cf Table 3):5838

COC(=O)C(Cc1ccccc1)NC(=O)C(Cc1ccccc1)NC(=O)C(OC)C1Cc2cc3cc(OC4CC(OC5CC(O)C(O)C(C)O5)C(O)C(C)O4)c(C)c(O)c3c(O)c2C(=O)C1OC1CC(OC2CC(OC3CC(C)(O)C(O)C(C)O3)C(O)C(C)O2)C(O)C(C)O1 (centres unmarked) :: 3.4
COC(=O)C(Cc1c[nH]c2ccccc12)NC(=O)C(OC)C1Cc2cc3cc(OC4CC(OC5CC(O)C(O)C(C)O5)C(O)C(C)O4)c(C)c(O)c3c(O)c2C(=O)C1OC1CC(OC2CC(OC3CC(C)(O)C(O)C(C)O3)C(O)C(C)O2)C(O)C(C)O1 (centres unmarked) [MTMSA-Trp (3), Mithramycin SA-Tryptophan, reference compound] :: 18.2
COC(=O)C(Cc1c[nH]c2ccccc12)NC(=O)C(Cc1ccccc1)NC(=O)C(OC)C1Cc2cc3cc(OC4CC(OC5CC(O)C(O)C(C)O5)C(O)C(C)O4)c(C)c(O)c3c(O)c2C(=O)C1OC1CC(OC2CC(OC3CC(C)(O)C(O)C(C)O3)C(O)C(C)O2)C(O)C(C)O1 (centres unmarked) :: 6.7
C=CCOc1ccc2[nH]cc(CC(NC(=O)C(OC)C3Cc4cc5cc(OC6CC(OC7CC(O)C(O)C(C)O7)C(O)C(C)O6)c(C)c(O)c5c(O)c4C(=O)C3OC3CC(OC4CC(OC5CC(C)(O)C(O)C(C)O5)C(O)C(C)O4)C(O)C(C)O3)C(=O)OC)c2c1 (centres unmarked) :: 22.2

Looking up COC(=O)C(Cc1c[nH]c2cc(F)ccc12)NC(=O)C(OC)C1Cc2cc3cc(OC4CC(OC5CC(O)C(O)C(C)O5)C(O)C(C)O4)c(C)c(O)c3c(O)c2C(=O)C1OC1CC(OC2CC(OC3CC(C)(O)C(O)C(C)O3)C(O)C(C)O2)C(O)C(C)O1 (centres unmarked) , I found its Ratio of median GI50 Non-Ewing sarcoma cell lines (cf Table 3):5838 recorded as 0.9

Looking up COC(=O)C(Cc1c[nH]c2ccccc12)NC(=O)C(Cc1c[nH]c2ccccc12)NC(=O)C(OC)C1Cc2cc3cc(OC4CC(OC5CC(O)C(O)C(C)O5)C(O)C(C)O4)c(C)c(O)c3c(O)c2C(=O)C1OC1CC(OC2CC(OC3CC(C)(O)C(O)C(C)O3)C(O)C(C)O2)C(O)C(C)O1 (centres unmarked) , I found its Ratio of median GI50 Non-Ewing sarcoma cell lines (cf Table 3):5838 recorded as 16.2

Looking up COC(=O)C(Cc1ccccc1)NC(=O)C(Cc1c[nH]c2ccccc12)NC(=O)C(OC)C1Cc2cc3cc(OC4CC(OC5CC(O)C(O)C(C)O5)C(O)C(C)O4)c(C)c(O)c3c(O)c2C(=O)C1OC1CC(OC2CC(OC3CC(C)(O)C(O)C(C)O3)C(O)C(C)O2)C(O)C(C)O1 (centres unmarked) , I found its Ratio of median GI50 Non-Ewing sarcoma cell lines (cf Table 3):5838 recorded as 3.9

Looking up COC(=O)C(Cc1cn(C)c2ccccc12)NC(=O)C(OC)C1Cc2cc3cc(OC4CC(OC5CC(O)C(O)C(C)O5)C(O)C(C)O4)c(C)c(O)c3c(O)c2C(=O)C1OC1CC(OC2CC(OC3CC(C)(O)C(O)C(C)O3)C(O)C(C)O2)C(O)C(C)O1 (centres unmarked) , I found its Ratio of median GI50 Non-Ewing sarcoma cell lines (cf Table 3):5838 recorded as 13.3
